Data provenance is PubChem BioAssay AID1347131.

test name: qHTS Assay for Foot and Mouth Disease Virus Antivirals: Primary Screen against the MLPCN compound library; also: nearly all actives have a fitted effect of over 55% in size
condition details: FMDV antiviral cell-based qHTS; series mostly up to 57.9 µM
The campaign covered roughly 410,000 compounds. About 2,000 (0.49%) were called active. Not shown: some 8% with an inconclusive outcome. Calls follow the shape of the full dose curve; tested in HEK293 reporter line. This is one part of a sample in which actives are shown more often than they occur.
Write down the outcome that applies. Available outcomes: Y = active, N = inactive

Known results for compounds:
[[record]]
compound = "Cc1ccc(N(Cc2cc(=O)[nH]c3ccccc23)C(=O)CCl)cc1"
class_assignment = "Y"

[[record]]
compound = "Cc1ccc(NC(=O)c2ccc(NC(=O)c3ccccc3)cc2)cc1C"
class_assignment = "N"

[[record]]
compound = "Cc1cc(CN(C)C(=O)c2cc(COc3ccc4ncccc4c3)on2)on1"
class_assignment = "N"

[[record]]
compound = "O=C(c1cc(-c2ccc(Cl)cc2Cl)on1)N1CCCC1"
class_assignment = "Y"


Problem: Short answer needed: outcome of this test for Cc1cc2oc(C(=O)NC3CCS(=O)(=O)C3)cc(=O)c2cc1C (configuration not stated) ?
Result: N

Problem: Short answer needed: outcome of this test for Cc1cc(C(=O)C(=O)N(C)C)c(C)n1-c1ccc([N+](=O)[O-])cc1 ?
Result: N

Problem: Short answer needed: outcome of this test for Cc1ccc(C)c(N2CCN(C(=O)CCS(=O)(=O)c3ccc4c(c3)NC(=O)CO4)CC2)c1 ?
Result: Y

Problem: Short answer needed: outcome of this test for CCc1cc(C(=O)N2CCCC(C(=O)c3ccc(Cl)cc3)C2)no1 (configuration not stated) ?
Result: N

Problem: Short answer needed: outcome of this test for O=c1nc(N/N=C/C=C/c2ccccc2)cn[nH]1 ?
Result: Y

Problem: Short answer needed: outcome of this test for O=C(O)C1C2C=CC(C2)C1C(=O)Nc1ccc2c(c1)OCCO2 (configuration not stated) ?
Result: N

Problem: Short answer needed: outcome of this test for COC(OC)c1ccnc(-c2ccc(OC(=O)c3ccc(F)cc3)cc2)n1 ?
Result: N

Problem: Short answer needed: outcome of this test for COc1cccc2cc(-c3nc(-c4ccccc4F)no3)c(=O)oc12 ?
Result: N

Problem: Short answer needed: outcome of this test for CC(=O)c1cccc(NS(=O)(=O)c2ccc(N/C=C\C(=O)c3ccc(C)cc3)cc2)c1 ?
Result: N

Problem: Short answer needed: outcome of this test for Cc1ccc(C)c(N2CCN(S(=O)(=O)c3cc4c(cc3Cl)NC(=O)CO4)CC2)c1 ?
Result: N

Problem: Short answer needed: outcome of this test for COc1ccccc1-c1noc(-c2ccc(N3CCN(c4ccccc4)CC3)c([N+](=O)[O-])c2)n1 ?
Result: N

Problem: Short answer needed: outcome of this test for CC1CCc2sc(C(=O)N3CCN(c4ncccn4)CC3)cc2C1 (configuration not stated) ?
Result: N

Problem: Short answer needed: outcome of this test for COc1ccc(C(=O)NNC(=O)c2ccccn2)cc1 ?
Result: N

Problem: Short answer needed: outcome of this test for CN(C)c1ccc(N=Nc2ccc3ncccc3c2)cc1 ?
Result: Y

Problem: Short answer needed: outcome of this test for CCc1noc(C)c1C(=O)Nc1nc(-c2ccc(Cl)cc2Cl)c(C)s1 ?
Result: N

Problem: Short answer needed: outcome of this test for O=C(Oc1ccc(-c2nc(-c3ccccn3)no2)cc1)c1ccccc1 ?
Result: Y

Problem: Short answer needed: outcome of this test for CC1(C(=O)Nc2cccc(Oc3ccccc3)c2)CCN1Cc1cccc2c1OCO2 (configuration not stated) ?
Result: N

Problem: Short answer needed: outcome of this test for CCCCn1c(N)c(N(CCC(C)C)C(=O)c2ccc3c(c2)OCO3)c(=O)[nH]c1=O ?
Result: N
